# EXPERIMENTAL DETAILS: AUClast in Wistar rat at 10 mg/kg, po
# Assay type: ADME, organism-based
# Set-up: dose 10 mg/kg
# COND: in vivo
MEASURE: AUC(0-t) (ng·h/mL)
Numeric only. Scale: ng·h/mL

Field request: AUC(0-t) | item: O=C(NC1CCC(O)CC1)c1csc(-c2ccc(OC(F)F)c3oc4ccccc4c23)n1 (stereo unspecified)
11500

###

# SUBJECT OF TEST: 3',5'-cyclic-AMP phosphodiesterase 4B (Homo sapiens, UniProt Q07343)
# Sequence (Q07343 whole entry): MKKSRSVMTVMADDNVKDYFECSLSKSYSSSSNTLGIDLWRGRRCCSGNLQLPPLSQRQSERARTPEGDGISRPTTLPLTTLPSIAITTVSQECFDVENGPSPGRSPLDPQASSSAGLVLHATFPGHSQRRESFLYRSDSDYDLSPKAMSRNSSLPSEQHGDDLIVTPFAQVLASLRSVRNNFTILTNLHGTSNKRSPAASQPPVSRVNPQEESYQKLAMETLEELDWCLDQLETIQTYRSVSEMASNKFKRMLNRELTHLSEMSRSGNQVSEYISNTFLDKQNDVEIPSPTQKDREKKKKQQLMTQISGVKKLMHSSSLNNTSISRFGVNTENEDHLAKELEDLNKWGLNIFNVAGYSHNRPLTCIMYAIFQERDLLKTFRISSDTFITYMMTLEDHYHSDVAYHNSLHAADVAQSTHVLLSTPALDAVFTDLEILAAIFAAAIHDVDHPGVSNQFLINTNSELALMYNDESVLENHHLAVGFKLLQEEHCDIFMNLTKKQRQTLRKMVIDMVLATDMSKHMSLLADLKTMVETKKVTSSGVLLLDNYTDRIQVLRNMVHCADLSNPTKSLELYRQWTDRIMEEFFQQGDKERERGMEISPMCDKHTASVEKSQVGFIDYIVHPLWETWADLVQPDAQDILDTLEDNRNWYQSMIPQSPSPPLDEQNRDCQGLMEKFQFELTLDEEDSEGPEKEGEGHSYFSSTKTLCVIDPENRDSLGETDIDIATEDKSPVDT
# EXPERIMENTAL DETAILS: Inhibition of human PDE4B using [3H]cAMP as substrate at 100 nM incubated for 5 mins followed by substrate addition and measured after 10 mins by scintillation proximity assay relative to control
# COND: time 15.0 min
MEASURE: inhibition (%)
Numeric only. Scale: %

Field request: inhibition | item: COc1ccc(-c2nc(-c3ccc(C#N)cc3)cs2)c2c1oc1ccccc12
5.2

Field request: inhibition | item: COc1ccc(-c2nc(CCC(=O)Nc3c(Cl)cncc3Cl)cs2)c2c1oc1ccccc12
8.9

Field request: inhibition | item: COc1ccc(-c2nc(C(=O)NC3CCCC3)c(C)s2)c2c1oc1ccccc12
1.6

Field request: inhibition | item: Cc1sc(-c2ccc(OC(F)F)c3oc4ccc(NS(C)(=O)=O)cc4c23)nc1C(=O)O
62.6

Reference for the values: ChEMBL document CHEMBL4715779
